System: EPHA6
conditions: concentration: 1 μM, replicates: in singlicate; n = 1;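 note: KINOMEscan kinase panel screen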
Kindly supply the reported %Inh values for the records listed here.
Answer format: number, then unit.

For CC(=O)c1cccc(NC(=O)NC2CCN(c3ccnc(Nc4ccc(F)cc4)n3)C2)c1 (stereo not drawn) , what is its reported %Inh?
7%

Subsequent entry: c1ccc(-c2ccnc3[nH]ccc23)cc1
0%

Subsequent entry: Cc1ccc(NC(=O)Nc2ccc(Cl)cc2)cc1-c1ccc(C(=O)Nc2ccncc2)cc1
36%

Subsequent entry: CNC(=O)c1ccc(C)c(-n2c(C)cc(OCc3ccc(F)cc3F)c(Br)c2=O)c1
0%

Subsequent entry: COc1ccc(-c2coc3ccc(-c4nnc(C)o4)cc23)cc1
26%

Subsequent entry: NS(=O)(=O)c1cccc(N/C=C2\C(=O)Nc3ccc(S(=O)(=O)Cc4c(Cl)cccc4Cl)cc32)c1
3%

Subsequent entry: COC(=O)C(Cc1ccccc1)NC(=O)NC1CCN(c2ccnc(Nc3ccc(F)cc3)n2)C1 (stereo not drawn)
0%

Subsequent entry: CC(=O)c1c(C)c2cnc(Nc3ccc(N4CCNCC4)cn3)nc2n(C2CCCC2)c1=O
0%

Subsequent entry: O=C(Nc1n[nH]c2nc(-c3cccs3)c(Br)cc12)C1CCCC1
27%

Subsequent entry: O=C(Nc1n[nH]c2nc(-c3cccs3)c(Br)cc12)C1CC1
17%

Subsequent entry: Cn1cncc1C(=O)NC1CCN(c2ccnc(Nc3ccc(F)cc3)n2)C1 (stereo not drawn)
0%

Subsequent entry: COc1ccc(Nc2nccc(NCCNC(=O)Nc3cc(C)ccc3C)n2)cc1
14%

Subsequent entry: Nc1cccc(-c2ccc3c(N)n[nH]c3c2)n1
0%

Subsequent entry: Cn1cnc2c(N)ncnc21
0%

Subsequent entry: COc1nccc(-c2c(-c3ccc(F)cc3)ncn2CCCN2CCOCC2)n1
0%

Subsequent entry: Fc1ccc(-c2nc3n(c2-c2ccncc2)CCS3)cc1
19%

Subsequent entry: Nc1ncnc2occ(-c3ccc4c(c3)CCN4C(=O)Cc3cc(F)ccc3F)c12
0%

Subsequent entry: COc1ccc(CSc2nnc(-c3ccc4c(c3)CCO4)o2)cc1
6%

Subsequent entry: CS(=O)(=O)CCNCc1nc(-c2ccc3ncnc(Nc4ccc5c(cnn5Cc5ccccc5)c4)c3c2)cs1.Cl.Cl
7%

Subsequent entry: O=C(Nc1n[nH]c2nc(-c3ccco3)c(Br)cc12)C1CCN(Cc2ccccc2)C1.O=C(O)[C@H](O)[C@@H](O)C(=O)O (stereo not drawn)
0%

Subsequent entry: CCn1c(-c2c(N)noc2C)nc2cnccc21
21%

Subsequent entry: Cc1ccccc1-c1cc(-c2c[nH]nc2-c2ccccn2)ccn1
11%

Subsequent entry: O=C1NC(=O)C(c2ccc(Cl)cc2)=C1Nc1ccc(O)cc1
12%

Subsequent entry: Cc1cccc2c(-c3ccncn3)c(-c3ccc(F)cc3)nn12
21%

Subsequent entry: COc1ccc(Nc2nccc(N3CCC(NC(=O)C(C)c4ccc(Cl)cc4)C3)n2)cc1 (stereo not drawn)
11%

Subsequent entry: O=C(Nc1n[nH]c2cc(-c3ccsc3)ccc12)C1CC1
6%

Subsequent entry: Nc1nccc(-c2c(-c3ccc(F)cc3)ncn2C2CCN(Cc3ccccc3)CC2)n1
24%

Subsequent entry: COc1ccc(CSc2nnc(-c3ccc4ncsc4c3)o2)cc1C(F)(F)F
20%

Subsequent entry: O=C1NC(=O)C(c2ccc(Cl)cc2)=C1Nc1cccc(Cl)c1
0%

Subsequent entry: CC(C)c1cc(-c2ccc3c(N)n[nH]c3c2)nc(N)n1
17%

====

Kindly supply the reported %Inh values for the records listed here.
Test system: NEK2
conditions: concentration: 1 μM, replicates: in singlicate; n = 1
Record the value in %, omitting the unit from your answer.

Entry Cn1cncc1-c1cc2c(Nc3ccc(OCc4ccccc4)cc3)ncnc2cn1 [GW281179] , system NEK2: what %Inh was measured?
0

Subsequent entry: COC(=O)C(NC(=O)NC1CCN(c2ccnc(Nc3ccc(F)cc3)n2)C1)c1ccccc1 (stereo not drawn) [GSK1379712]
0

Subsequent entry: NS(=O)(=O)c1cccc(N/C=C2\C(=O)Nc3ccc(S(=O)(=O)Cc4c(Cl)cccc4Cl)cc32)c1 [GSK398099]
21

Subsequent entry: CC(=O)c1c(C)c2cnc(Nc3ccn(C)n3)nc2n(C2CCCC2)c1=O
0

Subsequent entry: COc1ccc2cc(-c3nc(-c4ccccc4C(C)C)[nH]c3-c3ccncc3)ccc2c1 [SB-660566]
0

Subsequent entry: Cc1ccc(NC(=O)Nc2ccc(Cl)c(C(F)(F)F)c2)cc1-c1ccc(C(=O)Nc2ccncc2)cc1 [GSK1398470]
23

Subsequent entry: Cn1cnc2c(N)ncnc21 [SKF-97623]
0

Subsequent entry: COc1cccc(CNC(=O)NC2CCN(c3ccnc(Nc4ccc(F)cc4)n3)C2)c1 (stereo not drawn) [GSK1379723]
18

Subsequent entry: Cc1ccccc1Cn1ccn2c(=O)cc(N3CCOCC3)nc12 [GSK2269905]
13

Subsequent entry: COc1ccc(Nc2nccc(N3CCC(NC(=O)c4cc5ccccc5s4)C3)n2)cc1 (stereo not drawn) [GSK1379738]
1

Subsequent entry: CNc1nc(-c2ccc3c(N)n[nH]c3c2)cc(N2C[C@@H](C(=O)NC3CCCCC3)OC[C@H]2C)n1 [GSK2375584]
0

Subsequent entry: COc1cccc(C2=C(Nc3cc(Cl)c(O)c(Cl)c3)C(=O)NC2=O)c1 [SB-390767]
100

====

System: PAK2
conditions: concentration: 1 μM, replicates: in singlicate; n = 1
outcome.measure: %Inh (%)
Record the value in %, omitting the unit from your answer.

For Cc1ccc(NC(=O)Nc2ccccc2)cc1-c1ccc(C(=O)Nc2ccncc2)cc1 , what is its reported %Inh?
13

Subsequent entry: FC(F)(F)c1ccccc1-c1cc(-c2c[nH]nc2-c2ccccn2)ccn1
2

Subsequent entry: Cc1c(Cn2c(C)c(C)n3c(=O)cc(N4CCOCC4)nc23)cccc1C(F)(F)F
0

Subsequent entry: COc1ccc2cc(-c3nc(-c4ccccc4C(C)C)[nH]c3-c3ccncc3)ccc2c1
28

Subsequent entry: COc1cccc(NC(=O)Nc2ccc(C)c(-c3ccc(C(=O)Nc4ccncc4)cc3)c2)c1
16

Subsequent entry: Cc1ccc(NC(=O)Nc2ccc(Cl)c(C(F)(F)F)c2)cc1-c1ccc(C(=O)Nc2ccncc2)cc1
19

Subsequent entry: O=C(Nc1n[nH]c2nc(-c3cccs3)c(Br)cc12)C1CCCC1
13

Subsequent entry: Cc1c(Cn2c3ccccc3n3c(=O)cc(N4CCOCC4)nc23)cccc1C(F)(F)F
7

Subsequent entry: COC(=O)c1cccc(NC(=O)NC2CCN(c3ccnc(Nc4ccc(OC)cc4)n3)C2)c1 (centres unmarked)
0

Subsequent entry: O=c1cc(N2CCOCC2)nc2n(Cc3cccc(Cl)c3Cl)c3ccccc3n12
5

Subsequent entry: CCn1c(-c2c(N)noc2C)nc2cnccc21
32

Subsequent entry: Cc1cccc2c(-c3ccncn3)c(-c3ccc(F)cc3)nn12
8

Subsequent entry: Cn1cncc1-c1cc2c(Nc3ccc(OCc4ccccc4)cc3)ncnc2cn1
19

Subsequent entry: CNCc1ccc2nc(NC(=O)c3ccc(C(C)(C)C)cc3)cn2c1
26

Subsequent entry: O=C(Nc1n[nH]c2cc(-c3ccsc3)ccc12)C1CC1
45

Subsequent entry: Cc1ccc(NC(=O)Nc2ccc(Cl)cc2)cc1-c1ccc(C(=O)Nc2ccncc2)cc1
0

Subsequent entry: CC[C@@H]1CO[C@H](C(=O)Nc2ccccc2)CN1c1cc(-c2ccc3c(N)n[nH]c3c2)nc(NC)n1
7

Subsequent entry: COc1ccc(CSc2nnc(-c3ccc4nccn4c3)o2)cc1C(F)(F)F
61

Subsequent entry: CS(=O)(=O)Cc1ccc(Nc2nccc(-c3c(-c4cccc(NC(=O)C5CCCCC5)c4)nn4ncccc34)n2)cc1
8

Subsequent entry: COc1ccc(Nc2nccc(N3CCC(NC(=O)C(C)c4ccc(Cl)cc4)C3)n2)cc1 (centres unmarked)
38

Subsequent entry: COc1ccc(Nc2nccc(N3CCC(NC(=O)c4cc5ccccc5s4)C3)n2)cc1 (centres unmarked)
0

Subsequent entry: CC(=O)c1cccc(NC(=O)NC2CCN(c3ccnc(Nc4ccc(F)cc4)n3)C2)c1 (centres unmarked)
0

Subsequent entry: COC(=O)c1cccc(NC(=O)NC2CCN(c3ccnc(Nc4ccc(F)cc4)n3)C2)c1 (centres unmarked)
0

Subsequent entry: Cn1cncc1C(=O)NC1CCN(c2ccnc(Nc3ccc(F)cc3)n2)C1 (centres unmarked)
0

Subsequent entry: COC(=O)C(NC(=O)NC1CCN(c2ccnc(Nc3ccc(F)cc3)n2)C1)c1ccccc1 (centres unmarked)
1

Subsequent entry: CS(=O)(=O)CCNCc1nc(-c2ccc3ncnc(Nc4ccc(OCc5ccccc5)c(Cl)c4)c3c2)cs1.Cl
19

Subsequent entry: Cc1ccc(NC(=O)Nc2ccccc2F)cc1-c1ccc(C(=O)Nc2ccncc2)cc1
18

Subsequent entry: CN1c2ccc(-c3ccc(C(N)=O)cc3)cc2-c2[nH]ncc2S1(=O)=O
22

Subsequent entry: Cc1nccc(-c2c(-c3ccc(F)cc3)ncn2CCCN2CCOCC2)n1.Cl
6

====

Test system: DRAK1
Construct: gene STK17A
conditions: concentration: 1 μM, replicates: in singlicate; n = 1
Kindly supply the reported %Inh values for the records listed here.
Record the value in %, omitting the unit from your answer.

For c1ccc(-c2ccnc3[nH]ccc23)cc1 , what is its reported %Inh?
8

Subsequent entry: COc1cccc(C2=C(Nc3cc(Cl)c(O)c(Cl)c3)C(=O)NC2=O)c1
2

Subsequent entry: Cn1cnc2c(N)ncnc21
8

Subsequent entry: COc1nccc(-c2c(-c3ccc(F)cc3)ncn2CCCN2CCOCC2)n1
0

Subsequent entry: COc1cccc(CNC(=O)NC2CCN(c3ccnc(Nc4ccc(F)cc4)n3)C2)c1 (stereo not drawn)
0

Subsequent entry: Cc1c(Cn2c3ccccc3n3c(=O)cc(N4CCOCC4)nc23)cccc1C(F)(F)F
0

Subsequent entry: Cc1ccc(NC(=O)Nc2ccc(Cl)cc2)cc1-c1ccc(C(=O)Nc2ccncc2)cc1
3

Subsequent entry: CNc1nc(-c2ccc3c(N)n[nH]c3c2)cc(N2C[C@@H](C(=O)Nc3ccccc3)CC[C@H]2C)n1
97.6

Subsequent entry: Nc1nccc(-c2c(-c3ccc(F)cc3)ncn2C2CCN(Cc3ccccc3)CC2)n1
10
